Cited source: patent US20240228562A1

# targetOrTestSystem: T1, huWISP-3 (Homo sapiens, UniProt O95389)
# T1 sequence (O95389 24-354): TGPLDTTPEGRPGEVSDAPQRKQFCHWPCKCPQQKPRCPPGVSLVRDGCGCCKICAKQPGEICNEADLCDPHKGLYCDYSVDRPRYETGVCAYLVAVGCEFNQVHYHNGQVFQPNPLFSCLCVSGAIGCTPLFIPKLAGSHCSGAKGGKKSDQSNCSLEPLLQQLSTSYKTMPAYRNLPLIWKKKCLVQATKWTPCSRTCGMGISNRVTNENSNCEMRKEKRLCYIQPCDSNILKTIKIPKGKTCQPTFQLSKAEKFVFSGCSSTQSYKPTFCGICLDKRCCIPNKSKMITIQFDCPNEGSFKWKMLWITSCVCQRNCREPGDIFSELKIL
# protocol: Specificity ELISA (CCN proteins), huWISP-3
# Type: binding
# measurementConditions: coated 1 μg/ml; assessed when human CTGF signal approached saturation
readoutLabel: ELISA binding to huWISP-3

molecule	dataValue
SEQ ID NO: 7: parent CTGF-binding hNGAL lipocalin mutein (protein, lipocalin mutein) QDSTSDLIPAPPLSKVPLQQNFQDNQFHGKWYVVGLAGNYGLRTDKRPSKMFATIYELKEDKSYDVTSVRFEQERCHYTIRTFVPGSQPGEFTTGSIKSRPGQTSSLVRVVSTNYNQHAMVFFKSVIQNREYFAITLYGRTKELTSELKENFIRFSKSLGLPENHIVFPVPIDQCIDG	No binding
SEQ ID NO: 25: parent CTGF-binding hNGAL lipocalin mutein (protein, lipocalin mutein) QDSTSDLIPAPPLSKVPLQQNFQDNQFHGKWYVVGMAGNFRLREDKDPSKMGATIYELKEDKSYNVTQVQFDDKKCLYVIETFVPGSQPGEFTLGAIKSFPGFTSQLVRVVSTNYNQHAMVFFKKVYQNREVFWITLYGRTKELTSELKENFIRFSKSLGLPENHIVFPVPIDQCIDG	No binding
SEQ ID NO: 29: parent CTGF-binding hNGAL lipocalin mutein (protein, lipocalin mutein) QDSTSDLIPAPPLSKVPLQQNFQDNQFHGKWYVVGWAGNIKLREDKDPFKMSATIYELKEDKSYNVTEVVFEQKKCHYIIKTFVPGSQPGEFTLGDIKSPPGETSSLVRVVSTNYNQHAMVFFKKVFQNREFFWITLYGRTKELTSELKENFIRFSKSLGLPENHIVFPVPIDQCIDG	No binding
